test system: Staphylococcus aureus; assay: Antibacterial activity against methicillin-sensitive Staphylococcus aureus ATCC 29213 by plate reader analysis; format: functional, organism-based
observed_property: IC50 (µg/mL)
Give bare numbers, in µg/mL.

CCC(C)C(=O)C1=C(O)C(C)=C2OC(C)(C)CC3OC23C1=O (centres undefined) | 5.6

Hey, quick one: what's IC50 for each of these?
1. CC(C)=CCC1=C2OC(C)(C)CC3OC23C(=O)C(C(=O)C(C)C)=C1O (centres undefined)
2. CC1=C2OC(C)(C)CC3OC23C(=O)C(C(=O)C(C)C)=C1O (centres undefined)
3. COc1cccc(OC)c1C(=O)N[C@@H]1C(=O)N2[C@@H]1SC(C)(C)[C@@H]2C(=O)O [METHICILLIN]

1: 2.4; 2: 10; 3: 0.5
